Values were extracted from patent US20050287542A1.

study system: T1, HisKIX (His-tagged CBP KIX domain) (UniProt P45481 586-672)
T1 construct: range 586-672; not shown: amino-terminal hexahistidine tag of pET15b
T1 sequence (P45481 586-672): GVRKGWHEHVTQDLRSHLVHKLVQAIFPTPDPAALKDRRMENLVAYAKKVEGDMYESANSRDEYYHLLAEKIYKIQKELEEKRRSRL
assay protocol: fluorescence polarization competition; displaces 25 nM fluorescein-labelled PPKID4^P from 1.5 µM HisKIX
Square brackets hold non-standard residues; d marks the D form. Ends that are not written are not given here. pS = N[C@@H](COP(=O)(O)O)C(=O)O
endpoint label: IC50

Problem: # input binder: TDSQKRREILSRRP[pS]YRKILNDLSSDAPGVC-NH2 (also called CREB KID^P) [unlabeled KID-AB^P] ; wanted: its IC50
Result: 3.2 µM
